tested-on: whole RNP complex of IAV strain A/PR/8/34 (Influenza A virus)
assay-explanation: Transcription assay (TA assay)
study-conditions: RNPs of A/PR/8/34, capped RNA substrate
Labelling: IC50 reported below 500 nM becomes 1; at or above becomes -1.

Query :: I wonder whether CC(C)N1CCn2c(CN(C)Cc3ccccc3)cc(=O)c(O)c2C1=O has IC50 below 500 nM. Can you tell?
Result :: -1

Query :: Repeat with CC(C)N1CCn2c(CN(C)Cc3ccc(Cl)cc3)cc(=O)c(O)c2C1=O
Result :: -1

Query :: Lookup CC(C)N1CCn2c(CN(Cc3cccc4ccccc34)C(=O)C3CC(F)(F)C3)cc(=O)c(O)c2C1=O
Result :: 1

Query :: Here is the next compound: CCN(Cc1cccc2ccccc12)Cc1cc(=O)c(O)c2n1CCN(C(C)C)C2=O
Result :: 1

Query :: Next compound: CC(C)N1CCn2c(CNCc3ccccc3-c3ccccc3)cc(=O)c(O)c2C1=O
Result :: -1

Query :: // next record CCCN(Cc1cc(=O)c(O)c2n1CCN(C(C)C)C2=O)CC1(c2ccccc2)CCCC1
Result :: 1

Query :: Moving on to the next compound: CCCN(Cc1cccc2ccccc12)Cc1cc(=O)c(O)c2n1CCN(C(C)C)C2=O
Result :: -1

Query :: Can you check CC(C)N1CCn2c(CN(Cc3ccccc3-c3ccccc3)C(=O)C3CC(F)(F)C3)cc(=O)c(O)c2C1=O next?
Result :: 1

Query :: Here is the next compound: CCCN(Cc1ccc(-c2ccccc2)cc1)Cc1cc(=O)c(O)c2n1CCN(C(C)C)C2=O
Result :: -1

Query :: How about CCN(Cc1ccc(Cl)cc1)Cc1cc(=O)c(O)c2n1CCN(C(C)C)C2=O.O=C(O)C(F)(F)F ?
Result :: -1

Query :: Try CCN(Cc1ccccc1)Cc1cc(=O)c(O)c2n1CCN(C(C)C)C2=O next.
Result :: -1

Query :: Cool, now CC(C)N1CCn2c(CN(C)Cc3ccc(-c4ccccc4)cc3)cc(=O)c(O)c2C1=O
Result :: -1

Query :: Note, next up: CC(C)N1CCn2c(CN(C)Cc3cccc(Cl)c3)cc(=O)c(O)c2C1=O.O=C(O)C(F)(F)F
Result :: 1

Query :: Can you check CC(C)N1CCn2c(CN(Cc3cccc(-c4ccccc4)c3)C3CC3)cc(=O)c(O)c2C1=O next?
Result :: -1
